# ASSAYED_TARGET: human PAH with the R408W mutation (Homo sapiens, UniProt P00439, R408W)
# Construct: expressed in transfected cells
# Sequence (P00439 whole entry R408W): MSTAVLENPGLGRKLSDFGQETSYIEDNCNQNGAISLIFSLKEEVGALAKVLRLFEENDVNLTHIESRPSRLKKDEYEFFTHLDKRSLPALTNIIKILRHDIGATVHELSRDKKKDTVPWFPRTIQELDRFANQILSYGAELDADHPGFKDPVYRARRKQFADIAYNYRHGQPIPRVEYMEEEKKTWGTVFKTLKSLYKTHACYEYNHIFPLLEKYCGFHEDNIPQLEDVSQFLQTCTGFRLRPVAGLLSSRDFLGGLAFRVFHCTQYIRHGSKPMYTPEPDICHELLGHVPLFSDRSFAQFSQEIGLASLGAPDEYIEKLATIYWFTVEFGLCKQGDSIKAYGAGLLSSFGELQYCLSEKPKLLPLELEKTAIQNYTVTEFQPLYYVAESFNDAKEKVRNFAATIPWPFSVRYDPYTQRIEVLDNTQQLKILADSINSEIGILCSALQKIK
# EXPERIMENTAL_PROTOCOL: Cell Based Phenylalanine Flux Assay;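 further: after compound treatment, cells received sepiapterin plus isotope-labelled Phenylalanine for 4 hours, then labelled Tyrosine in the medium was quantified, 10-point 2-fold dilution series run in duplicate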
# COND: A375 cells expressing human R408W PAH; 24 hrs compound incubation; 13C-Tyrosine by LC-MS; average where tested multiple times; read-out: AC50
The molecules listed here are annotated with their AC50.
MEASUREMENT_KIND: AC50

O=C(c1nnc(-c2cc(C(F)(F)F)ccn2)o1)N1CCc2[nH]cnc2[C@@H]1c1cc2ccccn2n1 [Example 668] ... > 5000 nM
CC(C)(O)c1nc(C(F)F)c(C(=O)N2CCc3[nH]cnc3[C@@H]2c2cc3c(C(F)(F)F)cccn3n2)o1 [Example 811] ... 1000 to 5000 nM
Cc1cccn2nc([C@@H]3c4nc[nH]c4CCN3C(=O)c3nnc(-c4ccn(C(F)F)n4)o3)cc12 [Example 822] ... < 500 nM
Cc1ncoc1C(=O)N1CCc2[nH]cnc2[C@H]1c1cc2c(C)cccn2n1 [Example 770] ... < 500 nM
Cn1nc(C(F)F)nc1C(=O)N1CCc2[nH]cnc2[C@@H]1c1cc2c(F)cccn2n1 [Example 765] ... 1000 to 5000 nM
O=C(Cc1nc(C(F)(F)F)cs1)N1CCc2[nH]cnc2[C@H]1c1cc2ccccn2n1 [Example 608] ... 1000 to 5000 nM
Cc1nc([C@@H](C)O)oc1C(=O)N1CCc2[nH]cnc2[C@H]1c1cc2c(C)cccn2n1 [Example 752] ... < 500 nM
COc1cccn2nc([C@@H]3c4nc[nH]c4CCN3C(=O)c3nnc(C4CC4)o3)cc12 [Example 1168] ... 500 to 1000 nM
Cn1ccc(-c2nnc(C(=O)N3CCc4[nH]cnc4[C@H]3c3cc4ccc(C(F)(F)F)cn4n3)o2)n1 [Example 1128] ... 500 to 1000 nM
Cc1c(-c2nnc(C(=O)N3CCc4[nH]cnc4[C@H]3c3cc4cccc(C(F)F)n4n3)o2)cnn1C [Example 1366] ... < 500 nM
Fc1cccn2nc([C@H]3c4nc[nH]c4CCN3c3ncccn3)cc12 [Example 1617] ... > 5000 nM
O=C(c1ccnn1C(F)F)N1CCc2[nH]cnc2[C@@H]1c1cc2cc(F)ccn2n1 [Example 1093] ... 1000 to 5000 nM
COc1ccc(-c2nnc(C(=O)N3CCc4[nH]cnc4[C@H]3c3cc4cccc(C)n4n3)o2)nc1 [Example 910] ... 500 to 1000 nM
O=C(c1nnc(-c2cnn(C(F)F)c2)o1)N1CCc2[nH]cnc2[C@@H]1c1cc2cccc(C(F)(F)F)n2n1 [Example 1041] ... > 5000 nM
COc1cccn2nc([C@@H]3c4nc[nH]c4CCN3C(=O)c3nnc(C(C)(C)F)o3)cc12 [Example 971] ... 500 to 1000 nM

Provenance of the data: patent US20230365592A1
